FYI, the data here is from PubChem BioAssay (NCATS).

Experiment: qHTS for differential inhibitors of proliferation of Plasmodium falciparum line D10 (AID 1877);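 also: parasites grown with compound for 72 h before DNA staining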; also: potency is read from the fitted curve at half-maximal effect
Conditions: series mostly up to 28.7 µM
Inconclusive results are not listed. Activity calls are given as the source filed them. Calls follow the shape of the dose curve; as a rule, active = well fitted curve in the direction sought with a large enough effect; inconclusive = small, poorly fitted or top-dose-only effect, or another doubt; inactive = no such curve, though single readings can be large or run the other way.
measured-parameter: Potency

Example cases with answers are listed next.
> print(dat)
                                   compound  measured.parameter       measurement
1         O=C1NC(=O)C(c2ccccc2)(c2ccccc2)N1             Potency          inactive
2               CCN(CC)C(=O)c1ccc(O)c(OC)c1             Potency          inactive
3            O=C1NCC2(CCN(CCc3ccccc3)CC2)O1             Potency          inactive
4                   CC(=O)N[C@@H](CS)C(=O)O             Potency          inactive
5  CC(=O)c1ccc(S(=O)(=O)NC(=O)NC2CCCCC2)cc1             Potency          inactive
6       CC(=O)CCCCn1c(=O)c2c(ncn2C)n(C)c1=O             Potency          inactive
7  CC1=C(/C=C/C(C)=C/C=C/C(C)=C/C(=O)Nc2ccc(O)cc2)C(C)(C)CCC1             Potency  12.6 µM (active)
8                CCN(CC)CCNC(=O)c1ccc(N)cc1             Potency          inactive

# input Bench note: what Potency did CCN(CC)CCOC(=O)c1ccc(N)cc1 show?
# output inactive

# input Find the recorded Potency belonging to CC1(C)CCC2=C(O1)c1ccccc1C(=O)C2=O and report it.
# output 11.2 µM (active)

# input I am curious: what Potency value has been reported for NCCS ?
# output inactive

# input Consider the compound CCCNC(=O)NS(=O)(=O)c1ccc(Cl)cc1 and give its measured Potency.
# output inactive

# input Query (compound): CN(C)CCC(c1ccccc1)c1ccccn1 (stereo not drawn) ; field requested: Potency
# output inactive
